Values from ChEMBL document CHEMBL3588758

# test.system: UniProt:Q12809
# experiment.description: in vitro
# condition: hek293, probe [3H]dofetilide
// classify: if (residence time < 8 min) 1 else 0

{"smiles.string": "Cc1ccc(-c2ccc(C#Cc3cccc(C#Cc4ccc(-c5ccc(C)cc5)cc4)[n+]3C)cc2)cc1", "group": 0}
{"smiles.string": "C[n+]1c(CCc2ccc(-c3ccccc3)cc2)cccc1CCc1ccc(-c2ccccc2)cc1", "group": 0}
{"smiles.string": "C[n+]1c(C#Cc2ccc(-c3ccc(O)cc3)cc2)cccc1C#Cc1ccc(-c2ccc(O)cc2)cc1", "group": 0}

hey, is residence time for O=C(c1ccccc1)N1CCN(CCc2ccccc2)CC1 lower than 8 min or not?
1

Strictly below 8 min: is that where residence time of CCCCCCCc1cccc(CCCCCCC)[n+]1C sits?
0

Here's an entry: CCCN(CC)CC#Cc1ccc(C)cc1 . Is its residence time below 8 min?
1

Is 8 min strictly greater than the molecule's reported residence time? molecule: CCCCCCCCCc1cccc(CCCCCCCCC)[n+]1C
0

Please determine if CCCCCCCCCCCCc1cccc(CCCCCCCCCCCC)[n+]1C is below 8 min in terms of residence time.
0

I wonder whether CCN(CCOc1ccc([N+](=O)[O-])cc1)CCc1ccc([N+](=O)[O-])cc1 has residence time below 8 min. Can you tell?
1

----------
# test.system: Voltage-gated inwardly rectifying potassium channel KCNH2 (Homo sapiens, UniProt Q12809)
# Sequence (Q12809 whole entry): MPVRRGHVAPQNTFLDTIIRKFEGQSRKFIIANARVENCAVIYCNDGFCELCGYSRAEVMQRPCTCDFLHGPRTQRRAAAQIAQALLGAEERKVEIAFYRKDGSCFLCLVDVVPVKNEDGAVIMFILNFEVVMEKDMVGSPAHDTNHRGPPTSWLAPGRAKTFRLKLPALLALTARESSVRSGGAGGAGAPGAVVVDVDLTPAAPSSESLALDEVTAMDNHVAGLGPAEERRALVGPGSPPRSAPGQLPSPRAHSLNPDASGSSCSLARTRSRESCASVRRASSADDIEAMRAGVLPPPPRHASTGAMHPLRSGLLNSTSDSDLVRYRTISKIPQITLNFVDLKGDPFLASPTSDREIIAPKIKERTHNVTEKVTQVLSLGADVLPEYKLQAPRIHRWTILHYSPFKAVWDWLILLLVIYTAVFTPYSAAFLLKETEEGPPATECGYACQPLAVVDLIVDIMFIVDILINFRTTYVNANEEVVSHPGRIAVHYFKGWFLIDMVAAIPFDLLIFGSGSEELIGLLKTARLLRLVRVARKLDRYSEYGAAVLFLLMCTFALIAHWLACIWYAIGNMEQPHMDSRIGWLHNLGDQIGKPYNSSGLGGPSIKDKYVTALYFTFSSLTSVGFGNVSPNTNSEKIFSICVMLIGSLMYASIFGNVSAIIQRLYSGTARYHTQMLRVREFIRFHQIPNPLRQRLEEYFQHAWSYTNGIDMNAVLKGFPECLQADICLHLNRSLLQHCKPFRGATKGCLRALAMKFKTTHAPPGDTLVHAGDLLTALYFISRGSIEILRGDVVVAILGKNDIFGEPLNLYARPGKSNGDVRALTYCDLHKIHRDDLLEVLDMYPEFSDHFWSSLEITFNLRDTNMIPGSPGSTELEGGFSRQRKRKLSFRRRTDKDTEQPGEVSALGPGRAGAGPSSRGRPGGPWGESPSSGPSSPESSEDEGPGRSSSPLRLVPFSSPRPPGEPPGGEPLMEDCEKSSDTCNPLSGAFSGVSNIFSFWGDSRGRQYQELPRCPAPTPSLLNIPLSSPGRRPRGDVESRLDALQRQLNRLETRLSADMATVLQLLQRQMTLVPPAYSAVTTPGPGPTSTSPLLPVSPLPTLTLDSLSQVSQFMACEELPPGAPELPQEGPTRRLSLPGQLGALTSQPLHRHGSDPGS
Please use TRUE for Ki under 100 nM and FALSE for everything else, ties included.

{"molecule": "C[N+]1(CCc2ccccc2)CCC(C(=O)c2ccc(Cl)cc2)CC1 (stereo unspecified)", "test.system": "Voltage-gated inwardly rectifying potassium channel KCNH2 (Homo sapiens, UniProt Q12809)", "group": "TRUE"}
{"molecule": "COc1cccc(-c2ccc(C#Cc3cccc(C#Cc4ccc(-c5cccc(OC)c5)cc4)[n+]3C)cc2)c1", "test.system": "Voltage-gated inwardly rectifying potassium channel KCNH2 (Homo sapiens, UniProt Q12809)", "group": "FALSE"}
{"molecule": "CCCCCCCCCCCCc1cccc(CCCCCCCCCCCC)[n+]1C", "test.system": "Voltage-gated inwardly rectifying potassium channel KCNH2 (Homo sapiens, UniProt Q12809)", "group": "FALSE"}
{"molecule": "CCCCCCCCCc1cccc(CCCCCCCCC)[n+]1C", "test.system": "Voltage-gated inwardly rectifying potassium channel KCNH2 (Homo sapiens, UniProt Q12809)", "group": "TRUE"}
{"molecule": "N#CCN(CCOc1ccc([N+](=O)[O-])cc1)CCc1ccc([N+](=O)[O-])cc1", "test.system": "Voltage-gated inwardly rectifying potassium channel KCNH2 (Homo sapiens, UniProt Q12809)", "group": "FALSE"}

Please examine the following record next.
Lab log: compare recorded Ki with 100 nM; is it strictly lower for O=C(c1ccccc1)N1CCN(CCc2ccccc2)CC1 ?
FALSE

----------
# test.system: UniProtKB Q12809
# experiment.description: in vitro
# condition: hek293
readout.kind: log10 of kon (log10 of the value in M⁻¹ s⁻¹)
Please note: log10 values; quantity kon; unit M⁻¹ s⁻¹.

Look over these answered cases.
{"compound": "Cc1ccccc1-c1ccc(C#Cc2cccc(C#Cc3ccc(-c4ccccc4C)cc3)[n+]2C)cc1", "log10 of kon": 3.77}
{"compound": "C[n+]1c(C#Cc2ccc(-c3ccc(Cl)cc3)cc2)cccc1C#Cc1ccc(-c2ccc(Cl)cc2)cc1", "log10 of kon": 3.43}
{"compound": "C[n+]1c(C#Cc2ccc(-c3ccccc3)cc2)cccc1C#Cc1ccc(-c2ccccc2)cc1", "log10 of kon": 3.10}
{"compound": "CCCCCCc1cccc(CCCCCC)[n+]1C", "log10 of kon": 5.52}
{"compound": "COc1cccc(-c2ccc(C#Cc3cccc(C#Cc4ccc(-c5cccc(OC)c5)cc4)[n+]3C)cc2)c1", "log10 of kon": 3.79}

Noted log10 of kon for O=C(N(CCOc1ccc([N+](=O)[O-])cc1)CCc1ccc([N+](=O)[O-])cc1)C(F)(F)F , tested on UniProtKB Q12809: 4.62

The compound CCCCCCC[N+](CC)(CC)CC#Cc1ccc(Cl)cc1 , when measured on UniProtKB Q12809, yielded log10 of kon of 6.45

# lookup: C[N+]1(CCc2ccccc2)CCC(C(=O)c2ccc(Cl)cc2)CC1 (centres undefined) on UniProtKB Q12809, log10 of kon = 5.90

# log10 of kon measured on UniProtKB Q12809 for item N#CCN(CCOc1ccc([N+](=O)[O-])cc1)CCc1ccc([N+](=O)[O-])cc1 = 4.88

----------
Dear all, this message contains Ki results, target or system Voltage-gated inwardly rectifying potassium channel KCNH2 (Homo sapiens).
Give the quantity in µM, number only.

Completed entries (count: 3):
{"smiles.string": "CCCCCCCCc1cccc(CCCCCCCC)n1", "test.system": "Voltage-gated inwardly rectifying potassium channel KCNH2 (Homo sapiens)", "Ki / µM": 36.9}
{"smiles.string": "CN(CCOc1ccc(Cl)c(Cl)c1)CCc1ccc(Cl)c(Cl)c1", "test.system": "Voltage-gated inwardly rectifying potassium channel KCNH2 (Homo sapiens)", "Ki / µM": 5.57}
{"smiles.string": "O=[N+]([O-])c1ccc(CCNCCOc2ccc([N+](=O)[O-])cc2)cc1", "test.system": "Voltage-gated inwardly rectifying potassium channel KCNH2 (Homo sapiens)", "Ki / µM": 0.047}

# CCCCCCCc1cccc(CCCCCCC)[n+]1C with Voltage-gated inwardly rectifying potassium channel KCNH2 (Homo sapiens): Ki is 0.00028

Field Ki (Voltage-gated inwardly rectifying potassium channel KCNH2 (Homo sapiens)), entry CCCN(CC)CC#Cc1ccc(C)cc1 : 1.2

Tested on Voltage-gated inwardly rectifying potassium channel KCNH2 (Homo sapiens), the item CCCCCCCCCCc1cccc(CCCCCCCCCC)[n+]1C showed Ki equal to 0.017

Bench note, Voltage-gated inwardly rectifying potassium channel KCNH2 (Homo sapiens): entry COc1ccc(CCN(C)CCOc2ccccc2)cc1 , its Ki = 0.944

Field Ki (system: Voltage-gated inwardly rectifying potassium channel KCNH2 (Homo sapiens)) for entry Cc1ccc(-c2ccc(C#Cc3cccc(C#Cc4ccc(-c5ccc(C)cc5)cc4)[n+]3C)cc2)cc1 = 0.303

Assay Voltage-gated inwardly rectifying potassium channel KCNH2 (Homo sapiens), sample CCCCCCc1cccc(CCCCCC)[n+]1C , Ki read: 0.012

Item C[n+]1c(C#Cc2ccc(-c3ccc(Cl)cc3)cc2)cccc1C#Cc1ccc(-c2ccc(Cl)cc2)cc1 ; assay system Voltage-gated inwardly rectifying potassium channel KCNH2 (Homo sapiens); Ki reported as 0.071

Tested on Voltage-gated inwardly rectifying potassium channel KCNH2 (Homo sapiens), the item CCN(CCOc1ccc([N+](=O)[O-])cc1)CCc1ccc([N+](=O)[O-])cc1 showed Ki equal to 0.0042

Tested on Voltage-gated inwardly rectifying potassium channel KCNH2 (Homo sapiens), the item CN(CCCCOc1ccc([N+](=O)[O-])cc1)CCc1ccc([N+](=O)[O-])cc1 showed Ki equal to 0.0016

Lab entry: Voltage-gated inwardly rectifying potassium channel KCNH2 (Homo sapiens) assay, compound CCCCCCCCCCC#Cc1cccc(C#CCCCCCCCCCC)[n+]1C , Ki = 1.18

----------
# test.system: Kv11.1 (KCNH2, hERG) (Homo sapiens)
# Sequence (Q12809 whole entry): as above
# experiment.description: in vitro
# condition: hek293
Decide by koff: equal to or exceeding 0.001 s⁻¹ means t, less means f.

I'd appreciate it if you could say whether CCCCCCc1cccc(CCCCCC)[n+]1C has koff at least equal to 0.001 s⁻¹.
t

Is koff for Cc1ccccc1-c1ccc(C#Cc2cccc(C#Cc3ccc(-c4ccccc4C)cc3)[n+]2C)cc1 at or above 0.001 s⁻¹?
t

# check: koff of O=C(c1ccc(Cl)cc1)C1CCN(CCc2ccc(Cl)c(Cl)c2)CC1 is greater than or equal to 0.001 s⁻¹
t

Would you say C[n+]1c(C#Cc2ccc(-c3ccc(Cl)cc3)cc2)cccc1C#Cc1ccc(-c2ccc(Cl)cc2)cc1 shows koff at minimum 0.001 s⁻¹?
f

Tell me whether koff is at least 0.001 s⁻¹ here: CCCCCCC[N+](CC)(CC)CC#Cc1ccc(Cl)cc1
t

Evaluate O=[N+]([O-])c1ccc(CCNCCOc2ccc([N+](=O)[O-])cc2)cc1 : koff at minimum 0.001 s⁻¹?
t

----------
# test.system: Kv11.1 (KCNH2, hERG) (Homo sapiens)
# experiment.description: in vitro
# condition: hek293
readout.kind: log10 of residence time (log10 of the value in min)
On a log10 scale: recorded residence time, unit min.

{"compound": "CN(CCCCOc1ccc([N+](=O)[O-])cc1)CCc1ccc([N+](=O)[O-])cc1", "test.system": "Kv11.1 (KCNH2, hERG) (Homo sapiens)", "log10 of residence time": 0.58}
{"compound": "C[n+]1c(C#Cc2ccc(-c3ccccc3)cc2)cccc1C#Cc1ccc(-c2ccccc2)cc1", "test.system": "Kv11.1 (KCNH2, hERG) (Homo sapiens)", "log10 of residence time": 2.02}
{"compound": "N#CCN(CCOc1ccc([N+](=O)[O-])cc1)CCc1ccc([N+](=O)[O-])cc1", "test.system": "Kv11.1 (KCNH2, hERG) (Homo sapiens)", "log10 of residence time": 0.40}
{"compound": "Cc1ccccc1-c1ccc(C#Cc2cccc(C#Cc3ccc(-c4ccccc4C)cc3)[n+]2C)cc1", "test.system": "Kv11.1 (KCNH2, hERG) (Homo sapiens)", "log10 of residence time": 1.15}
{"compound": "CCCCCCCCCCc1cccc(CCCCCCCCCC)[n+]1C", "test.system": "Kv11.1 (KCNH2, hERG) (Homo sapiens)", "log10 of residence time": 1.20}

Known value: Kv11.1 (KCNH2, hERG) (Homo sapiens) log10 of residence time of the compound C[n+]1c(C#Cc2ccc(-c3cccc(Cl)c3)cc2)cccc1C#Cc1ccc(-c2cccc(Cl)c2)cc1 equals 1.96

Item COc1cccc(-c2ccc(C#Cc3cccc(C#Cc4ccc(-c5cccc(OC)c5)cc4)[n+]3C)cc2)c1 ; assay system Kv11.1 (KCNH2, hERG) (Homo sapiens); log10 of residence time reported as 1.32

Known value: Kv11.1 (KCNH2, hERG) (Homo sapiens) log10 of residence time of the compound C[N+]1(CCc2ccccc2)CCC(C(=O)c2ccc(Cl)cc2)CC1 (stereo not given) equals 0.46

The value of log10 of residence time recorded for CCCCCCC[N+](CC)(CC)CC#Cc1ccc(Cl)cc1 when tested on Kv11.1 (KCNH2, hERG) (Homo sapiens) reads 0.89

Case O=[N+]([O-])c1ccc(CCNCCOc2ccc([N+](=O)[O-])cc2)cc1 , Kv11.1 (KCNH2, hERG) (Homo sapiens), log10 of residence time recorded as 0.57
